# target entity: human α7 nAChR (Homo sapiens, UniProt P36544)
# Construct: expressed in transfected cells
# Sequence (P36544 23-502): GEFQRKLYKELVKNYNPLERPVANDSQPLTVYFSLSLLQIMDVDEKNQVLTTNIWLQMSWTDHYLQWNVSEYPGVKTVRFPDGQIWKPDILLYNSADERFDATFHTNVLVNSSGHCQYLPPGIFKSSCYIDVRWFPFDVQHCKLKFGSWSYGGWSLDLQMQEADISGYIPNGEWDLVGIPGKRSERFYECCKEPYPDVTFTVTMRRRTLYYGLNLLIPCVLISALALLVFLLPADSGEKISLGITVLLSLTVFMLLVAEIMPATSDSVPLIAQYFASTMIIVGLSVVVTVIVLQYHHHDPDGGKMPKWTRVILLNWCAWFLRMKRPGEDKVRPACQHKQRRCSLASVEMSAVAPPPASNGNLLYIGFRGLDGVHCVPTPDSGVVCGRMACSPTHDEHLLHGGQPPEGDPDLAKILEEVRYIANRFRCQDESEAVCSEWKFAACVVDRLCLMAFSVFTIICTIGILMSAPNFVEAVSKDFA
# assay text: Evaluation of PAM activity with human α7 nACh receptor stably expressing cells (aequorin luminescence, FDSS7000)
# Assay type: cell-based
# condition label: 10 μM test compound; ACh at EC20; ratio of RLU (Max-Min) to control wells; read-out: α7PAM (%) @10 μM
measurement label: activity at 10 µM (%)

O=C(NC1CCOCC1)[C@H]1CC[C@@H](n2cnc(-c3cc(F)ccc3F)c2Cl)CC1 = 941
N#Cc1c(-c2cc(F)ccc2F)ncn1[C@H]1C[C@H]2CC[C@@H](C1)N2C(=O)C1CCC(F)(F)CC1 = 208
O=C(NC1CCC(F)(F)CC1)N1[C@@H]2CC[C@H]1C[C@@H](n1cnc(-c3ccc(F)cc3F)c1Cl)C2 = 455

[P] CC(C)(F)C(=O)N[C@H]1CC[C@@H](n2cnc(-c3c(F)cc(F)cc3F)c2)CC1
[Q] O=C(NC1CCCCC1)N1CCC(n2cnc(-c3cccs3)c2)CC1
Rank P against Q by their activity at 10 µM values and give the higher one. Kindly give the label for the entry you pick.
P
(P: 591%, Q: 345%)

[I] O=C(Nc1ccccc1F)N1CCC(n2cnc(-c3c(F)cccc3F)c2)CC1
[II] N#Cc1c(-c2ccc(C(F)(F)F)cc2)ncn1[C@H]1CC[C@@H](C(=O)NC2CCOCC2)CC1
Quick one: lower activity at 10 µM, I or II ? Identify your selection by its label.
I
